biological target: E. coli SPase (Escherichia coli, UniProt P00803); construct: Full length His-tagged E. coli SPase proteins; His; made in house; host or cells: E. coli BL21(DE3); experiment: Biochemical SPase activity assay, fluorogenic peptide substrate, E. coli enzyme; conditions: 20 μM substrate, 10 minutes preincubation, read-out: IC 50 (nM) E. coli
Sequence (P00803 whole entry): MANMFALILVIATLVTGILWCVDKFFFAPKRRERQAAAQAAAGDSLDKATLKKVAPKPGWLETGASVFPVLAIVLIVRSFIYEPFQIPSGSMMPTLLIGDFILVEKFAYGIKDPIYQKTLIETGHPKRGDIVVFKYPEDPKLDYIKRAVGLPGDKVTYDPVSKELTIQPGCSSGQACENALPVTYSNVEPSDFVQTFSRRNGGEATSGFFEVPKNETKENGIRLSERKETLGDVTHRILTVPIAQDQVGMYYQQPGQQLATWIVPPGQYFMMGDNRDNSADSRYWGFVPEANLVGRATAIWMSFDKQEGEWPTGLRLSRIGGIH
*1 amine or outer side, *2 acyl side, *3 side chain or, on linkers, in order; H or OH if unused. Where a SMILES comes first, the peptide text is derived from it. The star is where a group is joined. boroAla((+)-pinanediol) = C[C@H](N*)B1O[C@@H]2C[C@@H]3C[C@@H](C3(C)C)[C@]2(C)O1; X3 = CCCCc1ccc(C2CCN(*)CC2)cc1; CO = O=C([*:1])[*:2]
METRIC_NAME: IC50 (nM)
Give a bare numeral; the unit nM is implied.

Would you mind telling me what IC50 value was observed for CCCCc1ccc(C2CCN(C(=O)N[C@@H](CCCCN)C(=O)N[C@H](C(=O)N[C@@H](C)C(=O)N[C@@H](CCCCN)C(=O)N[C@@H](C)B3O[C@@H]4C[C@@H]5C[C@@H](C5(C)C)[C@]4(C)O3)[C@@H](C)O)CC2)cc1 [Compound 127] ({X3-CO}-KTAK-{boroAla((+)-pinanediol)}) ?
64

What about this compound? CCCCc1ccc(-c2ccc(C(=O)N[C@@H](CCN)C(=O)N[C@H](C(=O)N[C@@H](C)C(=O)N[C@@H](CCCCN)C(=O)N[C@@H](C)C(=O)C3OC3C)[C@@H](C)O)cc2)cc1 (single isomer, unassigned) [Compound 203 P1]
440

* * *

Molecular target: S. aureus SPase (Staphylococcus aureus)
Sequence (P0A070 whole entry): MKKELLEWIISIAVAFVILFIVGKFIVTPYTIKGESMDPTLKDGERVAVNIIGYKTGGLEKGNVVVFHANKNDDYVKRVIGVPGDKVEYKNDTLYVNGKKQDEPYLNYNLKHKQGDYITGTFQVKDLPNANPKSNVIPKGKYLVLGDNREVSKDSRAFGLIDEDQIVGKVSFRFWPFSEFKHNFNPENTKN
Test: biochemical
Settings: IC 50 (nM) S. aureus, 20 μM substrate, 10 minutes preincubation
Description: Full length His-tagged S. aureus SPase protein was expressed similarly from E. coli BL21(DE3) containing the plasmid pCDF1-SaSpsB and purified similarly to the E. coli protein with the following exceptions. […] All protein concentrations were determined by BCA assay. […]
*1 amine or outer side, *2 acyl side, *3 side chain or, on linkers, in order; H or OH if unused. Where a SMILES comes first, the peptide text is derived from it. [ ]: non-standard residue; d: D form. The star is where a group is joined. ξ: configuration not given here. ξ3Amino2oxobutanoyl = CC(N[*:1])C(=O)C(=O)[*:2]; Thr(3ξ) = CC(O)[C@H](N)C(=O)O; Decanoyl = CCCCCCCCCC(=O)*; βAla = NCCC(=O)O
METRIC_NAME: IC50

What value of IC50 on S. aureus SPase (Staphylococcus aureus) does CCCCc1ccc(-c2ccc(C(=O)N[C@@H](CCN)C(=O)N[C@H](C(=O)N[C@@H](C)C(=O)N[C@@H](CCCCN)C(=O)N[C@@H](C)C(=O)C3OC3C)[C@@H](C)O)cc2)cc1 (single isomer, unassigned) [Compound 205 P2] have?
> 10000 nM

Input CCCCc1ccc(-c2ccc(C(=O)N[C@@H](CCN)C(=O)N[C@H](C(=O)N[C@@H](C)C(=O)N[C@@H](CCCCN)C(=O)N[C@@H](C)C(=O)C3OC3C)[C@@H](C)O)cc2)cc1 (single isomer, unassigned) [Compound 205 P1]
> 10000 nM

Consider next the compound CCCCCCCCCC(=O)NCCC(=O)N[C@@H](CCCCN)C(=O)N[C@H](C(=O)N[C@@H](C)C(=O)N[C@@H](CC(N)=O)C(=O)NC(C)C(=O)C(=O)NC)C(C)O (stereo partly drawn) [Compound 106] ({Decanoyl-βAla}-K[Thr(3ξ)]AN[ξ3Amino2oxobutanoyl]-NHMe) in the same way.
45 nM

* * *

tested on: Escherichia coli strain MC4100 IMP-4213, which harbors an LptD mutation; conditions: E. coli MC4100 IMP-4213; 35° C., 22 hours
Where a SMILES comes first, the peptide text is derived from it. [ ]: non-standard residue; d: D form. The star is where a group is joined. boroAla((+)-pinanediol) = C[C@H](N*)B1O[C@@H]2C[C@@H]3C[C@@H](C3(C)C)[C@]2(C)O1; Benzoyl(4-(4-Cl-Ph)) = O=C(c1ccc(-c2ccc(Cl)cc2)cc1)*; Ethanesulfonyl(2-NHDecyl) = CCCCCCCCCCNCCS(=O)(=O)*; X16 = O=S(=O)(c1ccc(-c2ccc(Cl)cc2)cc1)*; X21 = O=S(=O)(c1ccc(-c2ccc(Cl)cc2)nc1)*; AlaCOCOOMe = COC(=O)C(=O)[C@H](C)N*; X29 = CCCCCCCCCCN(C)CCS(=O)(=O)*; X22 = C[C@H](N*)C(=O)C(=O)O; X17 = CCCCCCCCCNCCCC(=O)*; boroAla = C[C@H](N*)B(O)O; Dab = NCC[C@H](N)C(=O)O
Kindly supply the reported MIC (μg/mL) E. coli values for the records listed here.

I'd like to know its MIC (μg/mL) E. coli. The compound in question is C[C@H](NC(=O)[C@@H](NC(=O)[C@H](CCN)NC(=O)c1ccc(-c2ccc(Cl)cc2)cc1)[C@@H](C)O)C(=O)N[C@@H](CCCCN)C(=O)N[C@@H](C)C(=O)C(=O)O [Compound 247] ({Benzoyl(4-(4-Cl-Ph))}-[Dab]TAK-X22)
>64 µg/mL

Next compound up: C[C@H](NC(=O)[C@H](CCCCN)NC(=O)[C@H](C)NC(=O)[C@@H](NC(=O)[C@H](CCCCN)NS(=O)(=O)c1ccc(-c2ccc(Cl)cc2)cc1)[C@@H](C)O)B1O[C@@H]2C[C@@H]3C[C@@H](C3(C)C)[C@]2(C)O1 [Compound 128] (X16-KTAK-{boroAla((+)-pinanediol)})
64 µg/mL

Note, next up: COC(=O)C(=O)[C@H](C)NC(=O)[C@H](CCCCN)NC(=O)[C@H](C)NC(=O)[C@@H](NC(=O)[C@H](CCN)NC(=O)c1ccc(-c2ccc(Cl)cc2)cc1)[C@@H](C)O [Compound 246] ({Benzoyl(4-(4-Cl-Ph))}-[Dab]TAK-AlaCOCOOMe)
>64 µg/mL

What about CCCCCCCCCCN(C)CCS(=O)(=O)N[C@@H](CCCCN)C(=O)N[C@H](C(=O)N[C@@H](C)C(=O)N[C@@H](CCCCN)C(=O)N[C@@H](C)B1O[C@@H]2C[C@@H]3C[C@@H](C3(C)C)[C@]2(C)O1)[C@@H](C)O [Compound 245] (X29-KTAK-{boroAla((+)-pinanediol)}) ?
32 µg/mL

Item: C[C@H](NC(=O)[C@H](CCCCN)NC(=O)[C@H](C)NC(=O)[C@@H](NC(=O)[C@H](CCN)NS(=O)(=O)c1ccc(-c2ccc(Cl)cc2)nc1)[C@@H](C)O)B1O[C@@H]2C[C@@H]3C[C@@H](C3(C)C)[C@]2(C)O1 [Compound 234] (X21-[Dab]TAK-{boroAla((+)-pinanediol)})
32 µg/mL

Do the same for CCCCCCCCCCNCCS(=O)(=O)N[C@@H](CCCCN)C(=O)N[C@H](C(=O)N[C@@H](C)C(=O)N[C@@H](CCCCN)C(=O)N[C@@H](C)C(=O)C(=O)OC)[C@@H](C)O [Compound 250] ({Ethanesulfonyl(2-NHDecyl)}-KTAK-AlaCOCOOMe) please
>64 µg/mL

Then this compound: CCCCCCCCCNCCCC(=O)N[C@@H](CCCCN)C(=O)N[C@H](C(=O)N[C@@H](C)C(=O)N[C@@H](CCCCN)C(=O)N[C@@H](C)B(O)O)[C@@H](C)O [Compound 228] (X17-KTAK-boroAla)
>64 µg/mL

* * *

system: Escherichia coli strain MC4100 IMP-4213, which harbors an LptD mutation; conditions: E. coli MC4100 IMP-4213; 35° C., 22 hours
Where a SMILES comes first, the peptide text is derived from it. [ ]: non-standard residue; d: D form. The star is where a group is joined. boroAla((+)-pinanediol) = C[C@H](N*)B1O[C@@H]2C[C@@H]3C[C@@H](C3(C)C)[C@]2(C)O1; Biphenylcarbonyl(4'-Bu) = CCCCc1ccc(-c2ccc(C(=O)*)cc2)cc1; Propanoyl(3-decylamino) = CCCCCCCCCCNCCC(=O)*; X36 = CC(C)C#CC#Cc1ccc(C(=O)*)cc1; NDecylGly = CCCCCCCCCCNCC(=O)O; Decanoyl = CCCCCCCCCC(=O)*; boroAla = C[C@H](N*)B(O)O; Dab = NCC[C@H](N)C(=O)O; CF3 = FC(F)(F)*; CH2Cl = ClC*
METRIC_NAME: MIC (μg/mL) E. coli (µg/mL)
Give just the number in µg/mL; leave the unit off.

I have this compound here, CCCCCCCCCCNCCC(=O)N[C@@H](CCN)C(=O)N[C@H](C(=O)N[C@@H](C)C(=O)N[C@@H](CCCCN)C(=O)N[C@@H](C)B(O)O)[C@@H](C)O [Compound 219] ({Propanoyl(3-decylamino)}-[Dab]TAK-boroAla) , and I need its recorded MIC (μg/mL) E. coli.
16

Repeat for the following compound: CCCCCCCCCCNCC(=O)N[C@H](C(=O)N[C@@H](C)C(=O)N[C@@H](CCCCN)C(=O)N[C@@H](C)B1O[C@@H]2C[C@@H]3C[C@@H](C3(C)C)[C@]2(C)O1)[C@@H](C)O [Compound 229] (H-[NDecylGly]TAK-{boroAla((+)-pinanediol)})
64

Item: CCCCCCCCCC(=O)N[C@@H](CCN)C(=O)N[C@H](C(=O)N[C@@H](C)C(=O)N[C@@H](CCCCN)C(=O)N[C@@H](C)B1O[C@@H]2C[C@@H]3C[C@@H](C3(C)C)[C@]2(C)O1)[C@@H](C)O [Compound 117] (Decanoyl-[Dab]TAK-{boroAla((+)-pinanediol)})
8

Moving on to CCCCc1ccc(-c2ccc(C(=O)N[C@@H](CCN)C(=O)N[C@H](C(=O)N[C@@H](C)C(=O)N[C@@H](CCCCN)C(=O)N[C@@H](C)C(=O)C(F)(F)F)[C@@H](C)O)cc2)cc1 [Compound 210] ({Biphenylcarbonyl(4'-Bu)}-[Dab]TAKA-CF3)
4

And then CC(C)C#CC#Cc1ccc(C(=O)N[C@@H](CCN)C(=O)N[C@H](C(=O)N[C@@H](C)C(=O)N[C@@H](CCCCN)C(=O)N[C@@H](C)B2O[C@@H]3C[C@@H]4C[C@@H](C4(C)C)[C@]3(C)O2)[C@@H](C)O)cc1 [Compound 263] (X36-[Dab]TAK-{boroAla((+)-pinanediol)}) , what is it?
0.25

Query CCCCc1ccc(-c2ccc(C(=O)N[C@@H](CCN)C(=O)N[C@H](C(=O)N[C@@H](C)C(=O)N[C@@H](CCCCN)C(=O)N[C@@H](C)C(=O)CCl)[C@@H](C)O)cc2)cc1 [Compound 211] ({Biphenylcarbonyl(4'-Bu)}-[Dab]TAKA-CH2Cl) next
16
